Source: patent US20260132123A1

Assay Overview: Mouse plasma protein binding
Format: in vitro ADME
Reported Mouse PPB (% free) values for a set of compounds
Experimental Endpoint: Mouse PPB (% free)

Compound	Test Result
O=C(c1[nH]ncc1Cl)N1CCC[C@H]1c1ccccc1-c1cccc(O)c1 (single isomer, unassigned) [ESC1002799]	9.9 % free
Cc1ccc(C(=O)N(CC(C)C)c2cccc(N(C)Cc3c[nH]cn3)c2)c(F)c1 [ESC1002575]	7.6 % free
CC(C)CN(C(=O)c1c(F)cccc1F)c1cccc(N(C)Cc2c[nH]cn2)c1 [ESC1002456]	8.9 % free
O=C(c1sccc1Cl)N1CCC[C@H]1c1ccccc1-c1cc(O)ccc1F (single isomer, unassigned) [ESC1002842]	3.4 % free
